# assayed system: human PAD4 (hPAD4) (Homo sapiens (Human), UniProt Q9UM07)
# Sequence (Q9UM07 whole entry): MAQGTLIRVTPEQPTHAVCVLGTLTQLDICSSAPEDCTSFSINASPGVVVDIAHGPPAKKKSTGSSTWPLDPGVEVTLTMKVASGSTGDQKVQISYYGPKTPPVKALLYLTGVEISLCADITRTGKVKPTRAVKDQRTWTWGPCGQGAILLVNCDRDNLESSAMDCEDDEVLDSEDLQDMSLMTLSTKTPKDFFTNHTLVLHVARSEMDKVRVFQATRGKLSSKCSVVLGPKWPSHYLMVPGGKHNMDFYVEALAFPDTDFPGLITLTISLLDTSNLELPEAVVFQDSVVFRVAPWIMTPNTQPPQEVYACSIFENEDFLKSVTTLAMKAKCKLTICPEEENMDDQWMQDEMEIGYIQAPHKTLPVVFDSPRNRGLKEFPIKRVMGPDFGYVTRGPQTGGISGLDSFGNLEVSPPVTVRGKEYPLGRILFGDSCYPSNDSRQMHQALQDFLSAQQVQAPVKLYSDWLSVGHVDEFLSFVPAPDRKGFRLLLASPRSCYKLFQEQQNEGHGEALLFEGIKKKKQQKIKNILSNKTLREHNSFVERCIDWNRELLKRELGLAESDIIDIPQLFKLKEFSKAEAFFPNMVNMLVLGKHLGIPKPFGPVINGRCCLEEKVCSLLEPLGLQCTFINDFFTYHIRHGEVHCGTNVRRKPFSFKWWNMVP
# experiment summary: RFMS Human PAD4 Functional Assay 1
# test parameters: RFMS assay 1; 5 nM hPAD4, 250 μM BAEE substrate, 50 μM calcium, 37° C.
# Description: RFMS Human PAD4 Functional Assay 1: Compounds were solubilized in 100% DMSO to achieve all) mM compound concentration. Compound stock solutions were stored at RT. A series of dilutions were prepared in DMSO and mixed 8 times with 20 μL mixing volume. Final top concentration of compound in the assay is 50 μM. […] MRM transition of product and internal standard were monitored at m/z 424.5 to 350.4 and m/z 293 to 247 respectively. […]
pIC50: −log10 of the molar value.
quantity: pIC50

Cc1c(-c2cc3ccc(C(C)O)nc3n2CC2CC2)nn2cc(C(=O)N3CC4CCC3[C@@H]4N)ccc12 (stereo partly drawn)	7.60
CNC(=O)c1ccc(-c2ccc3cc(-c4nn5cc(C(=O)N6CC7CCC6[C@@H]7N)cc(F)c5c4C)n(CC4CC4)c3n2)cn1 (stereo partly drawn)	8.00
Cc1c(-c2cc3ccc(-c4ccc(C(N)=O)c(F)c4)nc3n2CC2CC2)nn2cc(C(=O)N3C[C@H](N)C[C@@H](F)C3)cc(F)c12	6.33
Cc1c(-c2cc3cccc(OCCn4ccnc4)c3n2CC2CC2)nn2cc(C(=O)N3C[C@H](N)C[C@@H](F)C3)ccc12	7.70

A = Cc1c(-c2cc3cc(F)cc(C4CCN(C(=O)C5CCCO5)CC4)c3n2CC2CC2)nn2cc(C(=O)N3CCC[C@@H](N)C3)ccc12 (single isomer, unassigned) [Example 489]
B = Cc1c(-c2cc3cccc(OCC4CNC(=O)C4)c3n2CC2CC2)nn2cc(C(=O)N3C[C@H](N)C[C@@H](F)C3)cc(F)c12 (single isomer, unassigned) [Example 567]
Hi there, can you help? I need to know whether A or B has lower measured pIC50. Identify your pick by its label.
A
(A: 7.15, B: 7.70)

====

# assayed system: human PAD4 (hPAD4) (Homo sapiens (Human))
# experiment summary: RFMS Human PAD4 Functional Assay 1
# test parameters: RFMS assay 1; 5 nM hPAD4, 250 μM BAEE substrate, 50 μM calcium, 37° C.
pIC50: −log10 of the molar value.
quantity: pIC50

COc1cc(C(=O)N2C[C@H](N)C[C@@H](F)C2)cn2nc(-c3cc4ccc(N5CCC(N(C)C(C)=O)CC5)cc4n3CC3CC3)c(C)c12 [Example 244]	7.15

A = Cc1c(-c2cc3ccc(-c4ccc5c(c4)C(=O)NC5)nc3n2CC2CC2)nn2cc(C(=O)N3CC4CCC3[C@@H]4N)cnc12 (stereo partly drawn)
B = Cc1c(-c2cc3ccc(N4CCNCC4)cc3n2CC2CC2)oc2cc(C(=O)N3CC4CCC3[C@@H]4N)ccc12 (stereo partly drawn)
C = Cc1ccc2cc(-c3oc4cc(C(=O)N5CC6CCC5[C@@H]6N)ccc4c3C)n(CC3CC3)c2c1 (stereo partly drawn)
D = Cc1c(-c2cc3ccc(N4CCC(N)CC4)cc3n2CC2CC2)oc2cc(C(=O)N3CC4CCC3[C@@H]4N)ccc12 (stereo partly drawn)
E = COc1cc(C(=O)N2C[C@H](N)C[C@@H](F)C2)cc2sc(-c3cc4ccc(-c5ccc6c(c5)CNC6=O)nc4n3CC3CC3)c(C)c12
Given 5 molecules, produce a descending ranking by pIC50. Ranked list of labels, please, in the requested order.
D, C, B, E, A
(D: 7.70, C: 7.30, B: 7.03, E: 6.70, A: 5.98)
